system: TDF; experiment: cell number relative to DMSO (% of DMSO); higher = more cells (less growth inhibition / toxicity); settings: concentration: 10 µM; 24 h
Returns T if the recorded cell number is greater than or equal to 100, and F otherwise.

INSERT INTO measurements (molecule, target_entity, class_label) VALUES
  ('CCN(CC)CCCCNc1ncc2cc(-c3c(Cl)cccc3Cl)c(NC(=O)NC(C)(C)C)nc2n1', 'TDF', 'F'),
  ('Cl.Cl.Cl.NCCC1CCCC(CCN)N1 (configuration not stated) [MDL 26,630 trihydrochloride]', 'TDF', 'T'),
  ('C=CC1CN2CCC1CC2C(O)c1ccnc2ccc(OC)cc12.Cl.O (configuration not stated)', 'TDF', 'F'),
  ('Cl.NCCCC(N)(C(=O)O)C(F)F (racemic) [DL-alpha-Difluoromethylornithine hydrochloride]', 'TDF', 'T'),
  ('CCCN(CCc1ccccc1)C1CCc2c(O)cccc2C1 (configuration not stated) [2-(N-Phenethyl-N-propyl)amino-5-hydroxytetralin]', 'TDF', 'F'),
  ('CC(CN(C)C)CN1c2ccccc2Sc2ccc(C#N)cc21 (configuration not stated)', 'TDF', 'F'),
  ('COc1ccc2cc(C(C)C(=O)[O-])ccc2c1.[Na+] (single isomer, unassigned; (-)) [(-)-Naproxen sodium]', 'TDF', 'F'),
  ('Nc1ncnc2c1ncn2C1CCCO1 (configuration not stated)', 'TDF', 'F'),
  ('CC(C=CC=C(C)C=CC1=C(C)C(=O)CCC1(C)C)=CC=CC=C(C)C=CC=C(C)C=CC1=C(C)C(=O)CCC1(C)C', 'TDF', 'T'),
  ('COc1cccc(-c2cn(-c3ccc(CCN4CCC(O)CC4)cc3)c3ncnc(N)c23)c1', 'TDF', 'F'),
  ('COC(=O)[C@H](Cc1ccc([N+](=O)[O-])cc1)NC(=O)c1cccc2ccccc12 [methyl (2S)-2-(1-naphthoylamino)-3-(4-nitrophenyl)propanoate]', 'TDF', 'F');

====

test system: TDF; assay: H1.0 immunofluorescence intensity relative to DMSO (% of DMSO); higher = stronger H1.0 induction, active = 120 or more; settings: concentration: 10 µM; 24 h
Structures can show the parent of a compound that is named as a salt.
experimental readout: H1.0 immunofluorescence intensity

INSERT INTO measurements (compound, experimental_readout, measurement) VALUES
  ('CCCCCC(O)C=CC1C=CC(=O)C1CCCCCCC(=O)O (configuration not stated) [Prostaglandin A1]', 'H1.0 immunofluorescence intensity', 93.3),
  ('CCCCCCCCCCCC=CC(C)(C)C=CCCCC(=O)O [7,7-Dimethyleicosadienoic acid]', 'H1.0 immunofluorescence intensity', 99),
  ('CCC=CCC=CCC=CCCCCCCCCCCCC(=O)O [Docosatrienoic acid]', 'H1.0 immunofluorescence intensity', 100),
  ('CCC=CCC=CCC=CCC=CCC=CCCCC(=O)O [Eicosapentaenoic acid]', 'H1.0 immunofluorescence intensity', 103),
  ('CN(C)CCOC(=O)COc1ccc(Cl)cc1.Cl [Centrophenoxine hydrochloride]', 'H1.0 immunofluorescence intensity', 103),
  ('O=C(Nc1cccc(-c2ccccc2)c1)OC1CCCCC1 [cyclohexyl [1,1''-biphenyl]-3-ylcarbamate]', 'H1.0 immunofluorescence intensity', 93.4),
  ('NC(N)=NC(N)=Nc1ccccc1 [1-Phenylbiguanide]', 'H1.0 immunofluorescence intensity', 89.2),
  ('O=C(O)c1cc(N(Cc2ccccc2O)Cc2ccccc2O)ccc1O [Lavendustin B]', 'H1.0 immunofluorescence intensity', 94.5),
  ('NC(=O)c1cccc(-c2cc(Nc3ccc(OC(F)(F)F)cc3)ncn2)c1 [Bcr-abl Inhibitor]', 'H1.0 immunofluorescence intensity', 98.5),
  ('C#Cc1cccc(Nc2ncnc3cc(OCCOC)c(OCCOC)cc23)c1 [Erlotinib]', 'H1.0 immunofluorescence intensity', 91.3),
  ('Cc1ccc(C)c(OCCCC(C)(C)C(=O)O)c1 [Gemfibrozil]', 'H1.0 immunofluorescence intensity', 91.8),
  ('CN(C)CCC=C1c2ccccc2CCc2ccccc21.Cl [Amitriptyline.HCl]', 'H1.0 immunofluorescence intensity', 99.6),
  ('Cl.O.O=C(O)CN(CCN(CC(=O)O)Cc1ccccc1O)Cc1ccccc1O', 'H1.0 immunofluorescence intensity', 108),
  ('OC[C@@H](O)[C@H]1NC[C@@H](O)[C@H]1O [1,4-Dideoxy-1,4-imino-D-mannitol hydrochloride]', 'H1.0 immunofluorescence intensity', 87.9),
  ('Cc1[nH]ccc2c1[nH]c1cc(=O)ccc12.Cl.O.O', 'H1.0 immunofluorescence intensity', 97.1),
  ('COc1cc2c(cc1OC)CC(=O)N(CCCN(C)C[C@H]1Cc3cc(OC)c(OC)cc31)CC2.Cl', 'H1.0 immunofluorescence intensity', 92.6),
  ('CCCCCC=CCC=CCC=CCC=CCCCC(=O)OC(COCCCCCCCCCCCCCCCC)COP(=O)([O-])OCC[N+](C)(C)C (configuration not stated) [Arachidonyl-PAF]', 'H1.0 immunofluorescence intensity', 93);

====

system: TDF; experiment: cell number relative to DMSO (% of DMSO); higher = more cells (less growth inhibition / toxicity); details: concentration: 10 µM; 24 h
Returns t if the recorded cell number is greater than or equal to 60, and f otherwise.

INSERT INTO assay_data (molecule, target_entity, class_label) VALUES
  ('Cc1cc(Nc2ncc3cc(-c4c(Cl)cccc4Cl)c(=O)n(C)c3n2)ccc1F', 'TDF', 'f'),
  ('Cl.NCc1c[nH]c(=S)n1[C@H]1CCc2c(F)cc(F)cc2C1', 'TDF', 't'),
  ('O=c1c(OC2OC(C(O)CO)C(O)C2O)c(-c2ccc(O)c(O)c2)oc2cc(O)cc(O)c12 (stereo not given)', 'TDF', 't'),
  ('Cc1[nH]nc2ccc(-c3cncc(OCC(N)Cc4ccccc4)c3)cc12 (stereo not given)', 'TDF', 'f'),
  ('O=C1N=c2ccccc2=C1c1[nH]c2ccccc2c1NOCCC(O)CO (stereo not given)', 'TDF', 't');

====

tested on: TDF; assay: cell number relative to DMSO (% of DMSO); higher = more cells (less growth inhibition / toxicity); settings: concentration: 10 µM; 24 h
Known cell number of a selection of molecules
experimental readout: cell number

INSERT INTO assay_data (molecule, target_entity, experimental_readout, measurement) VALUES
  ('O=C(Nc1cccc(Nc2cc(Nc3cccc(C(F)(F)F)c3)ncn2)c1)C1CC1', 'TDF', 'cell number', 8.22),
  ('Cn1c(=O)c2[nH]c(-c3ccccc3)nc2n(C)c1=O', 'TDF', 'cell number', 110),
  ('O=C1c2c(O)ccc(O)c2C(=O)c2c(NCCNCCO)ccc(NCCNCCO)c21', 'TDF', 'cell number', 3.71),
  ('c1ccc(C2CN3CCSC3=N2)cc1 (stereo not given)', 'TDF', 'cell number', 94.6),
  ('CC1(C)CC(=O)C2=C(C1)NC(=S)NC2c1cccc(O)c1 (stereo not given)', 'TDF', 'cell number', 9.81),
  ('CC(=O)N[C@@H](CS)C(N)=O', 'TDF', 'cell number', 93.6),
  ('C=CC1CN2CCC1CC2C(O)c1ccnc2ccc(OC)cc12.C=CC1CN2CCC1CC2C(O)c1ccnc2ccc(OC)cc12.O=S(=O)(O)O (stereo not given) [Quinidine sulfate]', 'TDF', 'cell number', 99.9),
  ('CCc1nn(CCCN2CCN(c3cccc(Cl)c3)CC2)c(=O)n1CCOc1ccccc1', 'TDF', 'cell number', 95),
  ('Brc1c(Br)c(Br)c2[nH]cnc2c1Br', 'TDF', 'cell number', 71.5),
  ('C=C1CCC2OC2(C)CCC2C1CC2(C)C (stereo not given)', 'TDF', 'cell number', 99),
  ('COc1ccc(-n2c(SCC#N)nc3sc4c(c3c2=O)CCCC4)cc1', 'TDF', 'cell number', 92.5),
  ('CCCCC(=O)N(Cc1ccc(-c2ccccc2-c2nn[nH]n2)cc1)[C@H](C(=O)O)C(C)C', 'TDF', 'cell number', 112),
  ('O=C(O)Cc1ccc(O)c(O)c1 [3,4-Dihydroxyphenylacetic acid]', 'TDF', 'cell number', 102),
  ('COc1c(C)c2c(c(O)c1CC=C(C)CCC(=O)O)C(=O)OC2', 'TDF', 'cell number', 63.3),
  ('O=c1[nH]c2ccccc2c2ccccc12', 'TDF', 'cell number', 109),
  ('CCCCCCCCC=CCCCCCCCC(=O)OCC(O)COP(=O)(O)O (stereo not given)', 'TDF', 'cell number', 104),
  ('CC(C)(C)n1nc(-c2ccc(Cl)cc2)c2c(N)ncnc21', 'TDF', 'cell number', 107),
  ('COc1cc(/C=C/C(=O)CC(=O)/C=C/c2ccc(O)cc2)ccc1O', 'TDF', 'cell number', 66.7),
  ('CC1=CCC(C)(C)C=CC(=O)C(C)=CCC1', 'TDF', 'cell number', 89.7),
  ('CCNC(=O)CC[C@H](N)C(=O)O', 'TDF', 'cell number', 103),
  ('CCn1nc(C(=O)O)c(=O)c2cc3c(cc21)OCO3', 'TDF', 'cell number', 105),
  ('CC(C)CCCC(C)C1CCC2C3CCC4=CC(N=O)CCC4(C)C3CCC12C [(20S)-cholest-4-en-3-one oxime]', 'TDF', 'cell number', 110),
  ('O=S(=O)(O)C1CCNCC1', 'TDF', 'cell number', 101),
  ('COc1c2c(nc3ccccc13)OC(C(C)(O)CO)C2 (stereo not given)', 'TDF', 'cell number', 104),
  ('CC(C(=O)O)c1ccc(-c2ccccc2)c(F)c1 (stereo not given)', 'TDF', 'cell number', 101),
  ('CCCCCCCCCCCCCCCC(=O)OCC=C(C)C=CC=C(C)C=CC1=C(C)CCCC1(C)C [Retinyl palmitate]', 'TDF', 'cell number', 99.2),
  ('O=C1CC(=O)c2c(Cl)c(Cl)c(Cl)c(Cl)c21', 'TDF', 'cell number', 103),
  ('CC(=O)Oc1ccccc1C(=O)O [Acetylsalicylic acid]', 'TDF', 'cell number', 98.8),
  ('C=CC(=O)N1C/C(=C\c2ccc([N+](=O)[O-])cc2)C(=O)/C(=C/c2ccc([N+](=O)[O-])cc2)C1 [1-acryloyl-3,5-bis((E)-4-nitrobenzylidene)piperidin-4-one]', 'TDF', 'cell number', 0.39),
  ('COc1c(OCCCCN2CCN(C)CC2)cc(O)c2c(=O)cc(-c3ccccc3)oc12', 'TDF', 'cell number', 34.9),
  ('NC(CO)(CO)CO.O=C(c1ccccc1)c1ccc2n1CCC2C(=O)O (stereo not given) [Ketorolac tris salt]', 'TDF', 'cell number', 111),
  ('NCCCCC(NC(CCc1ccccc1)C(=O)O)C(=O)N1CCCC1C(=O)O (stereo not given)', 'TDF', 'cell number', 99.8),
  ('CC1OC(OC2C(Oc3cc(O)c4c(=O)c(O)c(-c5ccc(O)cc5)oc4c3)OC(CO)C(O)C2O)C(O)C(O)C1O (stereo not given) [Kaempferol-7-neohesperidoside]', 'TDF', 'cell number', 99.4),
  ('CC(C=CC=C(C)C=CC1=C(C)CCCC1(C)C)=CC=CC=C(C)C=CC=C(C)C=CC1=C(C)CCCC1(C)C', 'TDF', 'cell number', 106),
  ('CCCCCC(O)C=CC=CCCCCCCCC(=O)O (racemic)', 'TDF', 'cell number', 107);

Origin of values: the supplement of paper PMC7156485
